# measured target: glucocorticoid receptor (Homo sapiens, UniProt P04150)
# Sequence (P04150 524-777 limits assumed): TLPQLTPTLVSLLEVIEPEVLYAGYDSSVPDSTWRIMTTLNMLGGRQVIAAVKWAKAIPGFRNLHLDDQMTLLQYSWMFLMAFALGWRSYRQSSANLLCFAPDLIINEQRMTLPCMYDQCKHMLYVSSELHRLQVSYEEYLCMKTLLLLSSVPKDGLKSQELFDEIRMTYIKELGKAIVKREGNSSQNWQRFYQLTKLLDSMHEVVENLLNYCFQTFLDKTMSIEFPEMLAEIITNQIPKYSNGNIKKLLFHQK
Task for the reader: assign each of the following molecules its reported IC50.
# answer = value followed by unit

For CC1(C)O[C@@H]2C[C@H]3[C@@H]4C[C@H](F)C5=CC(=O)C=C[C@]5(C)[C@@]4(F)[C@@H](O)C[C@]3(C)[C@]2(C(=O)CO)O1 [FA, fluocinolone acetonide] the molecule record lists IC50 as 2 nM

Now examine the next entry.
So, CC1(C)O[C@@H]2C[C@H]3[C@@H]4CCC5=CC(=O)C=C[C@]5(C)[C@@]4(F)[C@@H](O)C[C@]3(C)[C@]2(C(=O)CO)O1 [TA, triamcinolone acetonide] ? Its IC50 was 1.45 nM

Values from paper PMC2749862
